All values here come from ChEMBL document CHEMBL1201862.

Quick reference: GI50 of the listed items.
- Test system: NCI-H460
- assay explanation: NCI tumour cell line growth inhibition, 48 h
Active and inactive are the calls of the source. Cut-off read from the data, not from the text of the source: active = GI50 up to about 1.1 µM and inactive = higher.

| molecule | tested target | GI50 |
| --- | --- | --- |
| CCCCCCCCCCCCCCCCCc1nnc(N)o1 | NCI-H460 | > 100 µM (inactive) |
| CCCCCC(/C=C/[C@@H]1[C@@H](C(O)CCCCCC(=O)OC)C(=O)C[C@H]1O[Si](C)(C)C(C)(C)C)OCOCCOC (stereo not given in full) | NCI-H460 | 29.7 µM (inactive) |
| N=c1oc2ccc([N+](=O)[O-])cc2cc1C(=O)NCc1ccccc1 | NCI-H460 | 41 µM (inactive) |
| CCCc1nn(C)c(CCC(=O)N(Cc2ccccc2)Cc2ccccc2)c1CC | NCI-H460 | > 100 µM (inactive) |
| CCCN1C(=O)CNC(=O)c2[nH]cnc21 | NCI-H460 | > 100 µM (inactive) |
| COC[C@@H](/N=C/N1CCc2cc(OC)c(OC)cc2C1)C(C)(C)C | NCI-H460 | > 100 µM (inactive) |
| Cc1nc2ccc(Cl)cc2c2c1CCN2c1ccccc1 | NCI-H460 | 7.74 µM (inactive) |
| NN=C1/C(=C\c2ccccc2)CCC/C1=C/c1ccccc1 | NCI-H460 | 32 µM (inactive) |
| Cc1ccc(NC(=O)CC(=O)n2nc(-c3ccccc3)c(/N=N\c3ccccc3[N+](=O)[O-])c2-c2ccccc2)cc1 | NCI-H460 | 35.8 µM (inactive) |
| CC1(C)Cc2c(cnn2-c2ccc(C(F)(F)F)cc2)-c2[nH]c(-c3ccc(O)cc3)nc21 | NCI-H460 | 14.4 µM (inactive) |

---

Form field: GI50 (one value per entry).
- Test system: U-251
- assay explanation: NCI tumour cell line growth inhibition, 48 h
Calls of active or inactive are those of the source. No stated cut-off is given here; in the data, active = GI50 up to about 1.1 µM and inactive = higher.

| compound | GI50 |
| --- | --- |
| COc1ccc(C[C@H]2COC(=O)[C@@H]2Cc2ccc(Br)cc2)cc1OC | 35 µM (inactive) |
| COc1cc2c3c(c1Oc1nnnn1-c1ccccc1)-c1c(ccc4c1OCO4)C[C@H]3N(C)CC2 | 69 µM (inactive) |
| COc1cccc(C2c3cc4c(cc3OC(Nc3ccccc3)C2C)OCO4)c1O (stereo not given) | 5.7 µM (inactive) |
| CC(=O)/C=C\C1CC2C=CC1C2 (stereo not given) | 45.4 µM (inactive) |
| CC1=NN(c2nc(N)nc(C(C)Cl)n2)C(C)(C)C1 (stereo not given) | > 100 µM (inactive) |

---

- System: DMS-114
- assay explanation: NCI tumour cell line growth inhibition, 48 h
Active and inactive are the calls of the source. Cut-off read from the data, not from the text of the source: active = GI50 up to about 1.1 µM and inactive = higher.
readout type: GI50

| molecule | result |
| --- | --- |
| CC[C@H](C)C(=O)O[C@H]1C[C@@H](C)C=C2C=C[C@H](C)[C@H](CC[C@@H]3C[C@@H](O)CC(=O)O3)[C@H]21 | > 30 µM (inactive) |
| Cc1ccccc1C(=O)Oc1ccc(Oc2ccccc2)cc1 | > 100 µM (inactive) |
| Cc1ccc(C)c(NC(=O)CC2SC(Nc3ccccc3Cl)=NC2=O)c1 (stereo not given) | 29.9 µM (inactive) |
| COc1ccc(C2N3CCCCC3[C@@H]3c4[nH]c5ccccc5c4CCN23)c(OC)c1 (stereo not given in full) | 18.7 µM (inactive) |
| CSc1ccc2c(cc1=O)C(NC(=O)c1ccc(C#N)cc1)CCc1cc(O)c(O)c(O)c1-2 (stereo not given) | 14.8 µM (inactive) |

---

- System: A549
- assay explanation: NCI tumour cell line growth inhibition, 48 h
Calls of active or inactive are those of the source. Rule as the data show it: active = GI50 up to about 1.1 µM and inactive = higher.
Outcome codes: true = active, false = inactive

| molecule | class |
| --- | --- |
| Cc1nc(C(N)=O)c(N)n1CCN1CCN(C(=O)CCCCCCCCCCNC2NC=Nc3[nH]cnc32)CC1 (stereo not given) | false |
| O=Cc1cc2c(cc1-c1c(C=O)ccc3c1OCO3)OCO2 | false |
| O=C1C(NCCN2CCOCC2)=C(Cl)C(=O)c2ncccc21 | false |
| C/C=C/c1cc2c(cc1O)CC[C@@H]1[C@@H]2CC[C@]2(C)[C@@H](O)CC[C@@H]12 | true |
| CCC[S+]([O-])c1nc(COC(=O)NC)c(COC(=O)NC)n1C (stereo not given) | false |
| CCN1CCC(O)(c2ccc(Cl)cc2)C(C(=O)c2ccc(Cl)cc2)C1 (stereo not given) | false |
| CCOC(=O)CCC1(C(=O)OCC)CCCC1=O (stereo not given) | false |
| O=C(O)c1c2c(cc3c1CC1(Cc4ccccc4C1=O)C3)CCC2 (stereo not given) | false |
| O=C1c2cccnc2S(=O)(=O)N1c1ccc([N+](=O)[O-])cc1 | false |
| O=c1[nH]c2ccccc2n1CCCN1CCC(n2c(=O)[nH]c3cc(Cl)ccc32)CC1 | false |

---

The entries below are paired with their reported GI50.
- Tested on: HT-29
- assay explanation: NCI tumour cell line growth inhibition, 48 h
Active and inactive are the calls of the source. Cut-off read from the data, not from the text of the source: active = GI50 up to about 1.1 µM and inactive = higher.

| compound | GI50 |
| --- | --- |
| CC(=O)OC1CC2C(C)(C)OC(=O)CC(OC(C)=O)[C@]2(C)C2CCC3(C)C(=CCC3c3ccoc3)[C@]12C (some centres undefined) | 15.7 µM (inactive) |
| Cc1ccc(S(=O)(=O)NC(=O)C2(Br)S(=O)(=O)OCCOS2(=O)=O)cc1 | > 100 µM (inactive) |
| Cc1ccccc1C1=C/C(=C(\SS/C(C(=O)c2ccc(OCC(=O)O)c(Cl)c2Cl)=C2\C=C(c3ccccc3C)SS2)C(=O)c2ccc(OCC(=O)O)c(Cl)c2Cl)SS1 | 33.1 µM (inactive) |
| CC(=O)NC(CCCNC(=O)OCc1ccccc1)C(=O)O (centres undefined) | > 100 µM (inactive) |

---

Measured GI50, listed per entry for reference.
- Test system: RPMI-8226
- assay explanation: NCI tumour cell line growth inhibition, 48 h
Active and inactive are the calls of the source. No stated cut-off is given here; in the data, active = GI50 up to about 1.1 µM and inactive = higher.

| molecule | GI50 |
| --- | --- |
| CCOC(=O)C(C(=O)OCC)=C1NC2(c3ccccc3Nc3ccc(C)cc32)C(C#N)S1 (stereo not given) | 2.32 µM (inactive) |
| Cc1nc2ccc(Cl)cc2c2c1CCN2c1ccccc1 | 12.4 µM (inactive) |
| Nc1ncn(C2OC(COP(=O)(O)O)C(O)C2O)c(=O)n1 (stereo not given) | > 100 µM (inactive) |
| NC(=S)NS(=O)(=O)c1ccc(Cl)cc1Cl | > 100 µM (inactive) |
| COc1c2cc([N+](=O)[O-])cc1CNC(=O)CN1CCOCCOCCN(CCOCCOCC1)CC(=O)NC2 | 56.4 µM (inactive) |
| O=C(N/N=C/c1ccccc1O)c1cccc([N+](=O)[O-])c1 | 8.04 µM (inactive) |
| COc1ccc(S(=O)(=O)N2C(=O)CCC2C(=O)NC(N)=O)cc1 (stereo not given) | > 100 µM (inactive) |
| CC[C@H](C)C(=O)O[C@H]1C[C@@H](C)C=C2C=C[C@H](C)[C@H](CC[C@@H]3C[C@@H](O)CC(=O)O3)[C@H]21 | > 30 µM (inactive) |
| COc1ccc(-c2c3c(n(C4OC(COC(C)=O)C(OC(C)=O)C(OC(C)=O)C4OC(C)=O)c(=S)c2C#N)CCC3)cc1 (stereo not given) | > 100 µM (inactive) |
| O=c1[nH]c2ccccc2n1CCCN1CCC(n2c(=O)[nH]c3cc(Cl)ccc32)CC1 | 20.1 µM (inactive) |

---

- Tested on: UO-31
- assay explanation: NCI tumour cell line growth inhibition, 48 h
Activity calls are given as the source filed them. Rule as the data show it: active = GI50 up to about 1.1 µM and inactive = higher.
Outcome codes: active, inactive

| compound | class |
| --- | --- |
| COCOc1ccc(Cn2c(=O)n(C)c(=O)c3c2ncn3C)cc1[N+](=O)[O-] | inactive |
| COc1cccc(-c2cc(O)c3cc(N4CCOCC4)ccc3n2)c1 | active |
| COc1ccc(/C=C2/NC(=S)N=C2Cl)cc1 | inactive |
| C=C(Nc1ccc([N+](=O)[O-])cc1[N+](=O)[O-])c1c/c(=N\NC(N)=S)c2ccccc2o1 | inactive |
| N#C/C(=C\c1ccc(C(O)P(=O)(O)O)cc1)C(N)=O (configuration not stated) | inactive |
| CCN(CC)c1ccc2c(c1)N=C1N=CC=CN1C2(c1ccc(N(C)C)cc1)c1ccc(N(C)C)cc1 | inactive |
| CC1=CC(=O)C[C@]2(C)[C@@H](O)CC(C(C)CO)C[C@@H]12 (some centres not stated) | inactive |
| C[C@H]1CC[C@H](NC(=O)N(CCCl)N=O)CC1 | inactive |
| Nc1nc(Cl)cc(NCC2(CO)CC(CCc3ccccc3)C2)n1 (configuration not stated) | inactive |
| CCOC(=O)c1nnn(CCCCO)c1C(=O)OCC | inactive |
| NC(CSc1nc2ccccn2c1[N+](=O)[O-])C(=O)O (configuration not stated) | inactive |
| Oc1cc(O)c2c(c1)O[C@H](c1cc(O)c(O)c(O)c1)[C@@H](O)C2 | inactive |
